- tested-on: Steroidogenic factor 1 (Homo sapiens)
- test-description: inhibitors of human SF-1, primary screen, cell-based, CHO-K1, Gal4-SF-1 LBD, luciferase luminescence (AID 525);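 also: 0% = SF-1 transfected cells with DMSO and 100% = mock-transfected cells lacking SF-1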
- condition-parameters: CHO-K1 Gal4-SF-1 LBD luciferase reporter; at 10 µM; active compounds read high
Screen size: about 65,000 compounds; about 360 (0.55%) were called active. The sample as a whole holds a higher share of actives than the screen did.
Parameter inhibition: see the listing below.

Worked cases, answers included:
Request: Provide one value: measured inhibition of C=CCN(c1ccc(C(N)=O)cc1)S(C)(=O)=O
Response: -14.5% (inactive)

Request: Provide one value: measured inhibition of CCOc1cccc(NC(=O)CC#N)c1
Response: -9.5% (inactive)

Request: Provide one value: measured inhibition of CC1CCCCN1S(=O)(=O)c1ccc(C(=O)Nc2nnc(-c3cccs3)o2)cc1 (stereo unspecified)
Response: 49.4% (active)

Others:
Request: Provide one value: measured inhibition of CCC(C(=O)NC1CCCC1)N(C(=O)c1snc(C(N)=O)c1N)c1ccc2c(c1)OCCO2 (stereo unspecified)
Response: -2.2% (inactive)

Request: Provide one value: measured inhibition of CC(C)(C)n1nc2c(c1NC(=O)c1ccc(S(=O)(=O)N3CCCC3)cc1)CS(=O)C2 (stereo unspecified)
Response: 6.6% (inactive)

Request: Provide one value: measured inhibition of O=C(Nc1ccc(Cl)cn1)c1cnn2cccnc12
Response: -63.8% (inactive)

Source of measurements: PubChem BioAssay AID525
